List of pEC50 values.
- assayed_target: acetylcholine muscarinic M1 receptor (Homo sapiens)
- Construct: expressed in transfected cells; host or cells: CHOnfat (CHO cells, NFAT reporter background) expressing hM1
- Sequence (P11229 whole entry): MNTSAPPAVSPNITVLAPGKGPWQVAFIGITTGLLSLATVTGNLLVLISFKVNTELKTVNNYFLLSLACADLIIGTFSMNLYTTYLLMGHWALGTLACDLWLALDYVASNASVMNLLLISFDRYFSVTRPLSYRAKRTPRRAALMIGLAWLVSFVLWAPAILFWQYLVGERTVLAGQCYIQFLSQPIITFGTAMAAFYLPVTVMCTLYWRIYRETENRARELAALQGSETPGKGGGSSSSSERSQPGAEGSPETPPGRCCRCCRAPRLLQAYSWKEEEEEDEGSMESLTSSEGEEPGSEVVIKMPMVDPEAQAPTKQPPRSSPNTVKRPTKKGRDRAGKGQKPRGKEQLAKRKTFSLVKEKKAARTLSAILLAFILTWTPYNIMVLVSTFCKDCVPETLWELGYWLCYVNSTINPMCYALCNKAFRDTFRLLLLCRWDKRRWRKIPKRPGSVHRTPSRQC
- test_description: muscarinic FLIPR assay: intracellular calcium in CHOnfat/hM1 cells, potentiation of EC20 acetylcholine
- Assay type: cell-based
pEC50: −log10 of the molar value.
endpoint_label: pEC50

molecule: N#CC1(c2ccccc2)CCN(Cc2cc(C(=O)O)c(=O)n3ccccc23)CC1 [Example 3]
endpoint_label: pEC50
test_value: 6.82
--
molecule: N#CC1(c2nc3ccccc3s2)CCN(Cc2cc(C(=O)O)c(=O)n3ccccc23)CC1 [Example 45]
endpoint_label: pEC50
test_value: 7.04
--
molecule: Cc1cccc(C2(C#N)CCN(Cc3cc(C(=O)O)c(=O)n4ccccc34)CC2)c1 [Example 8]
endpoint_label: pEC50
test_value: 7.06
--
molecule: N#CC1(c2cccc(Cl)n2)CCN(Cc2cc(C(=O)O)c(=O)n3ccccc23)CC1 [Example 28]
endpoint_label: pEC50
test_value: 6.88
--
molecule: COc1ccccc1C1(C#N)CCN(Cc2cc(C(=O)O)c(=O)n3ccccc23)CC1 [Example 10]
endpoint_label: pEC50
test_value: 6.79
--
molecule: N#CC1(c2cccc(F)c2)CCN(Cc2cc(C(=O)O)c(=O)n3ccccc23)CC1 [Example 46]
endpoint_label: pEC50
test_value: 6.25
--
molecule: N#CC1(c2cccnc2)CCN(Cc2cc(C(=O)O)c(=O)n3ccccc23)CC1 [Example 47]
endpoint_label: pEC50
test_value: 6.44

###

- assayed_target: acetylcholine muscarinic M1 receptor (Homo sapiens)
- Construct: expressed in transfected cells; host or cells: CHOnfat (CHO cells, NFAT reporter background) expressing hM1
- test_description: muscarinic FLIPR assay: intracellular calcium in CHOnfat/hM1 cells, potentiation of EC20 acetylcholine
- Format: cell-based
- condition_set: CHOnfat/hM1 cells, FLIPR, 4 min preincubation, then EC20 acetylcholine (3 nM final); read-out: IP Value (inflection point)
pEC50: −log10 of the molar value.
endpoint_label: pEC50

compound_structure: C=Cc1ccc(C2(C#N)CCN(Cc3cc(C(=O)O)c(=O)n4ccccc34)CC2)nc1
test_value: 6.39

compound_structure: C=Cc1cccnc1C1(C#N)CCN(Cc2cc(C(=O)O)c(=O)n3ccccc23)CC1
test_value: 5.20

compound_structure: N#CC1(c2cnc3ccccc3n2)CCN(Cc2cc(C(=O)O)c(=O)n3ccccc23)CC1
test_value: 5.91

compound_structure: N#CC1(c2ncccc2Br)CCN(Cc2cc(C(=O)O)c(=O)n3ccccc23)CC1
test_value: 5.47
